# System: transplanted mice (hair follicles of haired mice transplanted into the back of nude mice)
# protocol: Hair shaft growth in nude mice transplanted with hair follicles of haired mice (Example 1)
# Format: in vivo
# test-conditions: 1 wt %; second hair cycle
Listing: Hair shaft maximum length of selected compounds
value-type: Hair shaft maximum length

                                   compound                            assayed_system                 value_type  experimental_result
0  O[C@H]1[C@H](O)[C@@H](O)[C@H](O)[C@@H](O)[C@H]1O [myo-inositol, cis-1,2,3,5-trans-4,6-cyclohexanehexaol]  transplanted mice (hair follicles of haired mice transplanted into the back of nude mice)  Hair shaft maximum length         4.9 ± 0.5 mm
1  OC1C(O)C(O)C(O)C(O)C1O (stereo not drawn) [allo-inositol, cis-1,2,3,4-trans-5,6-cyclohexaneheaxol]  transplanted mice (hair follicles of haired mice transplanted into the back of nude mice)  Hair shaft maximum length         5.0 ± 0.5 mm
2  OC1C(O)C(O)C(O)C(O)C1O [D-chiro-inositol]  transplanted mice (hair follicles of haired mice transplanted into the back of nude mice)  Hair shaft maximum length         5.7 ± 0.4 mm
3  OC1C(O)C(O)C(O)C(O)C1O (stereo not drawn) [epi-inositol, cis-1,2,3,4,5-trans-6-cyclohexanehexaol]  transplanted mice (hair follicles of haired mice transplanted into the back of nude mice)  Hair shaft maximum length         5.2 ± 0.3 mm
